target: PAI-1 (Homo sapiens, UniProt P05121); assay: biochemical; assay type: biochemical; details: 20 μm
Sequence (P05121 24-402): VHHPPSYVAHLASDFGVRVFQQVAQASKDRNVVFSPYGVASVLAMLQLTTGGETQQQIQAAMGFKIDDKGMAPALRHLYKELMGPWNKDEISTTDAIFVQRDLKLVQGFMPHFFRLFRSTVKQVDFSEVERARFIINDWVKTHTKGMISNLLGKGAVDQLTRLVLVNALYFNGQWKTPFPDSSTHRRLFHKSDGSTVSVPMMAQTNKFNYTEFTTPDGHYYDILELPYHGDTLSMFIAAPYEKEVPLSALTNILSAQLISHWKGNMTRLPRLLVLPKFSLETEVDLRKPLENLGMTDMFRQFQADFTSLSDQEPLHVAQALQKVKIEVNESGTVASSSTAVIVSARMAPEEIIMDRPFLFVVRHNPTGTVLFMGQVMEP
Counter-ions that a name gives are not always drawn.
VALUE KIND: % Inhibition (%)

Some molecules with recorded % Inhibition:
CN(C)CCSc1ccc(/C=c2\[nH]c(=O)/c(=C/c3ccc(OCc4ccccc4)cc3)[nH]c2=O)s1 [Compound 5482.HCl] : 59
CN(C)CCSc1ccc(/C=c2\[nH]c(=O)/c(=C/c3ccc(N(C)C)cc3)[nH]c2=O)cc1 [Compound 5424.HCl] : 45
CN(C)CCSc1ccc(/C=c2\[nH]c(=O)/c(=C/c3cn(C)c4ccccc34)[nH]c2=O)cc1 [Compound 5497] : 72
CN(C)CCSc1ccc(/C=c2\[nH]c(=O)/c(=C/c3c4ccccc4cc4ccccc34)[nH]c2=O)s1 [Compound 5498.HCl] : 71

[A] CN(C)CCSc1ccc(/C=c2\[nH]c(=O)/c(=C/c3ccc(C#N)cc3)[nH]c2=O)cc1 [Compound 5462]
[B] COc1ccc(/C=c2\[nH]c(=O)/c(=C/c3ccc(SCCN(C)C)cc3)[nH]c2=O)cc1 [Compound 5479]
[C] CN(C)CCSc1ccc(/C=c2\[nH]c(=O)/c(=C/c3ccc(N(C)C)cc3)[nH]c2=O)cc1 [Compound 5424]
Lookup: # sort list by recorded % Inhibition, greatest to least Give the order by naming the labels one after another as requested.
Found: B, A, C
(B: 70%, A: 43%, C: 23%)

[P] CN(C)CCSc1ccc(/C=c2\[nH]c(=O)/c(=C/CC(C)(C)C)[nH]c2=O)s1 [Compound 5502.HCl]
[Q] COC(=O)c1ccc(/C=c2\[nH]c(=O)/c(=C/c3ccc(SCCN(C)C)s3)[nH]c2=O)cc1 [Compound 5477]
[R] CN(C)CCSc1ccc(/C=c2\[nH]c(=O)/c(=C/c3cccnc3)[nH]c2=O)s1 [Compound 5470.HCl]
Lookup: # sort list by recorded % Inhibition, greatest to least Give the order by naming the labels one after another as requested.
Found: Q, P, R

[P] CN(C)CCSc1ccc(/C=c2\[nH]c(=O)/c(=C/c3ccc(C#N)cc3)[nH]c2=O)cc1 [Compound 5462.HCl]
[Q] CN(C)CCSc1ccc(/C=c2\[nH]c(=O)/c(=C/C3CCCCC3)[nH]c2=O)s1 [Compound 5454.HCl]
[R] CN(C)CCSc1ccc(/C=c2\[nH]c(=O)/c(=C/c3cccc([N+](=O)[O-])c3)[nH]c2=O)cc1 [Compound 5422.HCl]
Lookup: # sort list by recorded % Inhibition, greatest to least Give the order by naming the labels one after another as requested.
Found: Q, P, R

* * *

target: PAI-1 (Homo sapiens, UniProt P05121); test: biochemical; format: biochemical; details: 20 μm
Where a name gives a salt, the structure may show the parent alone.
VALUE KIND: % Inhibition (%)

CC(C)N(CCSc1ccc(/C=c2\[nH]c(=O)/c(=C/c3ccccc3)[nH]c2=O)s1)C(C)C [Compound 5399.HCl] : 31
CN(C)CCSc1ccc(/C=c2\[nH]c(=O)/c(=C/c3ccncc3)[nH]c2=O)s1 : 22
CN(C)CCSc1ccc(/C=c2\[nH]c(=O)/c(=C/c3ccccc3)[nH]c2=O)cc1[N+](=O)[O-] : 60
CN(C)CC[S+]([O-])c1ccc(/C=c2\[nH]c(=O)/c(=C/c3ccccc3)[nH]c2=O)cc1 (stereo not drawn) [Compound 5141.HCl] : 6
CN(C)CCSc1ccc(/C=c2\[nH]c(=O)/c(=C/CC3CCCC(C)(C)C3)[nH]c2=O)s1 (stereo not drawn) : 59

[I] CN(C)CCSc1ccc(/C=c2\[nH]c(=O)/c(=C/c3ccc4ccccc4n3)[nH]c2=O)s1 [Compound 5308.HCl]
[II] CN(C)CCSc1ccc(/C=c2\[nH]c(=O)/c(=C/c3cccc([N+](=O)[O-])c3)[nH]c2=O)s1
[III] CN(C)CCSc1ccc(/C=c2\[nH]c(=O)/c(=C/c3cn(C)c4ccccc34)[nH]c2=O)s1 [Compound 5473.HCl]
[IV] CN(C)CCSc1ccc(/C=c2\[nH]c(=O)/c(=C/c3ccc(C(C)(C)C)cc3)[nH]c2=O)cc1 [Compound 5440]
Lookup: Give the ascending ranking of the items by reported % Inhibition. Give the order by naming the labels one after another as requested.
Found: II, IV, III, I

[I] CN(C)CCSc1ccc(/C=c2\[nH]c(=O)/c(=C/c3ccsc3)[nH]c2=O)cc1 [Compound 5133.HCl]
[II] CC(=O)Nc1ccc(/C=c2\[nH]c(=O)/c(=C/c3ccc(SCCN(C)C)s3)[nH]c2=O)cc1 [Compound 5300.HCl]
Lookup: Of the two listed items, I and II , which carries the larger % Inhibition figure? Answer = label.
Found: I

[P] CN(C)CCSc1ccc(/C=c2\[nH]c(=O)/c(=C/c3ccc(N(C)C)cc3)[nH]c2=O)s1
[Q] CN(C)CCSc1ccc(/C=c2\[nH]c(=O)/c(=C/c3ccc(OCc4ccccc4)cc3)[nH]c2=O)s1 [Compound 5482]
Lookup: // task: argmin of % Inhibition over [ P , Q ] Answer = label.
Found: Q
(Q: 50%, P: 82%)

Value source: patent US5750530A
